molecular target: GlcNAc(b1-3)Gal(b1-4)GlcNAc(b1-2)[GlcNAc(b1-3)Gal(b1-4)GlcNAc(b1-6)]Man(a1-6)[GlcNAc(b1-3)Gal(b1-4)GlcNAc(b1-2)Man(a1-3)]Man(b1-4)GlcNAc(b1-4)GlcNAc; assay: glycan array binding signal (z-score within array); higher = stronger binding; settings: glycan notation: IUPAC condensed, linker removed
Shown is part of a subset that was picked to be rich in the strongest signals.

binder	glycan array binding signal (z-score)
SfaEH (Escherichia coli), Q1RDG5 (protein) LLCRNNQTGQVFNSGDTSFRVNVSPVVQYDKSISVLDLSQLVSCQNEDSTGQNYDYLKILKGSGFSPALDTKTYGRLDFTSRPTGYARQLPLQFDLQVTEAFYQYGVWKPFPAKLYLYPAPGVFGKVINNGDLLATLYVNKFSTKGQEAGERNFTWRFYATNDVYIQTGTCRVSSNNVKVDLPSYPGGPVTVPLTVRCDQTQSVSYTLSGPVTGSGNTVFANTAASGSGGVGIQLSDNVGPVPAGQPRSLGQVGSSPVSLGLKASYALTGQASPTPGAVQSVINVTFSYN	2.3
Pwp2 (Candida glabrata) (protein) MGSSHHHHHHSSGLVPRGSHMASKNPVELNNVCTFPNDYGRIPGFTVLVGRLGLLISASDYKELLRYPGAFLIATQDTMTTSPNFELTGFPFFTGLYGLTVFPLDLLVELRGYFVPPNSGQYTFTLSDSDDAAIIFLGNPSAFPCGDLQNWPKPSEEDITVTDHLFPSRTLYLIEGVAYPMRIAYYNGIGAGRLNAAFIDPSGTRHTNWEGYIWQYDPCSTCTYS	4.24
Vd2LysM (Verticillium dahliae) (protein) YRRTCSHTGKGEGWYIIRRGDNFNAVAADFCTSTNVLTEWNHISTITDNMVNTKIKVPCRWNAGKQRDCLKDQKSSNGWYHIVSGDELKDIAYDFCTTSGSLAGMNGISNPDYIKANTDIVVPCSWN	0.741
Mg1lysM (Mycosphaerella graminicola) (protein) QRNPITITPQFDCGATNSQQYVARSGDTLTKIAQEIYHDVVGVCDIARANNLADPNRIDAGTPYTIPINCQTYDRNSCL	-0.06
Als3-41 (Candida albicans) (protein) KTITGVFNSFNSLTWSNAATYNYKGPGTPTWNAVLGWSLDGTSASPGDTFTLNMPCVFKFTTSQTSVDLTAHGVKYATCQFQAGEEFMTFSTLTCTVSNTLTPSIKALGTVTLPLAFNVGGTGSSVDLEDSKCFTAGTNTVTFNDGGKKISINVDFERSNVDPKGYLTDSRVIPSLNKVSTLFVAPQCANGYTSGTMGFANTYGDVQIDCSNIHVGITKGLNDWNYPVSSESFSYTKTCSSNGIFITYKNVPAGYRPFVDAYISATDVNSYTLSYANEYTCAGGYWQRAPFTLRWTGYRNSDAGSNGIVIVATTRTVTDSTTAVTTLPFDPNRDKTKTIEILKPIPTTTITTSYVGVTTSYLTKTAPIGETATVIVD	1.97
